Measurement target: T1, endothelin A receptor (ETaR) (Homo sapiens (assumed), UniProt P25101)
T1 construct: endothelin A receptor (ETaR), a GPCR; plasmid and cells were gifts from Gmax Biopharm LLC; also called GPCR; ETaR-expressing CHO cells; source: CHO cells stably expressing and displaying ETaR (provided by Gmax Biopharm LLC); on cells, and in vesicles prepared from them
T1 sequence (P25101 21-427): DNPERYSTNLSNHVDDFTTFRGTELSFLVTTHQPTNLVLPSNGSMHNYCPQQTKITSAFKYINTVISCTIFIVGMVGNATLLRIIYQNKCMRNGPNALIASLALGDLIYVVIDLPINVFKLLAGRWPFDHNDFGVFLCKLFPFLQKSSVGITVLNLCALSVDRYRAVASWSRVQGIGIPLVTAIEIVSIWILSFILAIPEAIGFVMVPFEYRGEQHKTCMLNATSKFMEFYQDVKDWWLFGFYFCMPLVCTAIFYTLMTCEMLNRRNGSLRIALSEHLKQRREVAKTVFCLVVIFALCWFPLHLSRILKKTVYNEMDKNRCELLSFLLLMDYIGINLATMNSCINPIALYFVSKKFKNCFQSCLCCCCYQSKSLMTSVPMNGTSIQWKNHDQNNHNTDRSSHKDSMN
Method description: flow cytometry on cells; competition of unlabelled full-length antibodies, obtained similarly as for scFv; L = 13 nM; Ki = IC50/(1 + L/Kd)
Experimental setup: one partner purified
Metric name: Ki (nM)
Response body: numeric value in nM, unit text excluded.

Prompt: Supply recorded Ki for anti-GPCR (ETaR) antibody 80H4, full-length, mutant D73H (antibody, V domains shown, heavy-chain variable region as the heavy chain of m13; heavy-chain constant region as in m13; light-chain variable region as the light chain of m13; light-chain constant region as in m13; source: Expi293F, heavy and light chains co-expressed, purified from supernatant (Protein A); copies: 2 + 2) VH: EVQLLESGGGLVQPGGSLRLSCAASGFTFSSYGMSWVRQAPGKGLEWVSAISTNGATAYYADSVKGRFTISRHNSKNTLYLQMNSLRAEDTAVYYCATEKGAMGYWGQGTLVTVSS VL: DIVMTQTPLSLSVTPGQPASISCRSSQNIVHSTGNTYLEWYLQKPGQSPQLLIYKVSNRFSGVPDRFSGSGSGTDFTLKISRVEAEDVGVYYCFQGSHFPFTFGQGTKVEIK here.
Response: 15.7

More entries:
Prompt: Look up and state reported Ki for anti-GPCR (ETaR) antibody 80H4, full-length, mutant S115N-S30R-D73H (antibody, V domains shown, heavy-chain variable region as the heavy chain of m13; heavy-chain constant region as in m13; light-chain variable region as the light chain of m13; light-chain constant region as in m13; also called S115N-D73H-S30R; source: Expi293F, heavy and light chains co-expressed, purified from supernatant (Protein A); copies: 2 + 2) VH: EVQLLESGGGLVQPGGSLRLSCAASGFTFRSYGMSWVRQAPGKGLEWVSAISTNGATAYYADSVKGRFTISRHNSKNTLYLQMNSLRAEDTAVYYCATEKGAMGYWGQGTLVTVNS VL: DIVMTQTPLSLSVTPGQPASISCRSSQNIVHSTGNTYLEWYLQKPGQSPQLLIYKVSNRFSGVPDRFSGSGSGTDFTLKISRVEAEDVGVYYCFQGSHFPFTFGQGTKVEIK
Response: 6.2

Prompt: Answer with reported Ki of anti-GPCR (ETaR) antibody 80H4, full-length, wild type (antibody, V domains shown, heavy-chain variable region of 80H4; heavy-chain constant region (HC); labelled by anti-human IgG; light-chain variable region of 80H4; light-chain constant region (LC); also called WT; full-length wild-type antibody; source: Expi293F, heavy and light chains co-expressed, purified from supernatant (Protein A); copies: 2 + 2) VH: EVQLLESGGGLVQPGGSLRLSCAASGFTFSSYGMSWVRQAPGKGLEWVSAISTNGATAYYADSVKGRFTISRDNSKNTLYLQMNSLRAEDTAVYYCATEKGAMGYWGQGTLVTVSS VL: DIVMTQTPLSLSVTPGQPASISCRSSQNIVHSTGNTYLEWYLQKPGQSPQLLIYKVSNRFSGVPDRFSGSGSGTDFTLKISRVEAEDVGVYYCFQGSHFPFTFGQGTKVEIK
Response: 31.3

Prompt: Input anti-GPCR (ETaR) antibody 80H4, full-length, mutant S115N-S30R (antibody, V domains shown, heavy-chain variable region as the heavy chain of m13; heavy-chain constant region as in m13; light-chain variable region as the light chain of m13; light-chain constant region as in m13; source: Expi293F, heavy and light chains co-expressed, purified from supernatant (Protein A); copies: 2 + 2) VH: EVQLLESGGGLVQPGGSLRLSCAASGFTFRSYGMSWVRQAPGKGLEWVSAISTNGATAYYADSVKGRFTISRDNSKNTLYLQMNSLRAEDTAVYYCATEKGAMGYWGQGTLVTVNS VL: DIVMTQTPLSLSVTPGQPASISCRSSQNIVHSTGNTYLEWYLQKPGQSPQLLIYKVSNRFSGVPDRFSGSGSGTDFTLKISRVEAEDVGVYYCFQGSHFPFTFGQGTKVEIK , output reported Ki.
Response: 10.2
